Test system: CT-26 cancer cells
PROTOCOL_DESCRIPTION: (Photo)cytotoxicity in 2D monolayer cells under normoxia (21% O2), resazurin assay
Format: cell-based, murine
MEASUREMENT_CONDITIONS: Mus musculus, CT26, 645 nm, 9.0 J cm–2, normoxia 21% O2
pIC50: −log10 of the molar value.
REPORTED_PROPERTY: pIC50

{"columns": ["COMPOUND", "NUMERIC_READOUT"],
 "data": [
  ["C=CC1=C(C)c2cc3[nH]c(cc4nc(cc5[nH]c(cc1n2)c(C)c5CCC(=O)O)C(CCC(=O)O)=C4C)c(C)c3C=C [PpIX, Protoporphyrin IX]", 6.77]
]}
